Below are pIC50 values for CTP synthase 1 (Homo sapiens) collected from several publications.
pIC50: −log10 of the molar value.
readout.kind: pIC50

CCOc1cncc(-c2cnc(C(=O)N[C@@H](CN3CC(F)C3)c3cc(NS(=O)(=O)C4CC4)ccn3)s2)n1 (single isomer, unassigned) : > 7.00
COc1cc(-c2cncc(C#N)n2)ccc1C(=O)NC(C)(C)c1csc(NS(=O)(=O)C2CC2)n1 : 5.00 to 6.00
CCOc1cncc(-c2ccc(NC(=O)C3(c4ccnc(NS(=O)(=O)C5CC5)n4)CCOCC3)c(C)c2)n1 : ≥ 7.00
CCOc1cncc(-c2cnc(C(=O)NC(CCN(C)C)c3cc(NS(=O)(=O)C4CC4)ccn3)s2)n1 (stereo not shown) : > 7.00
CCOc1cncc(-c2ccc(C(=O)N(C)C(CC)c3csc(NS(=O)(=O)C4CC4)n3)c(F)c2)n1 (racemic) : 6.00 to 7.00
CCOc1cncc(-c2ncc(C(=O)NCc3cccc(NS(=O)(=O)C(F)F)c3)s2)n1 : > 7.00
CC(C)Oc1cncc(-c2ccc(C(=O)NC(C)(C)c3csc(NS(=O)(=O)C4CC4)n3)c(F)c2)n1 : > 7.00

====

Below are IC50 values for CTP synthase 1 (Homo sapiens) collected from several publications.
readout.kind: IC50

CCOc1cncc(-c2cnc(C(=O)N[C@@](C)(COC)c3cc(NS(=O)(=O)C4CC4)ccn3)s2)n1 : 100 to 1000 nM
CCOc1cncc(-c2cnc(C(=O)N[C@@H](CN3CCOCC3)c3cc(NS(=O)(=O)C4CC4)ccn3)s2)n1 (single isomer, unassigned) : < 100 nM
CCOc1cncc(-c2ccc(C(=O)NC3(c4ccnc(NS(=O)(=O)C5CC5)n4)CCOCC3)nc2)n1 : 100 to 1000 nM
CCOc1cncc(-c2cnc(C(=O)N[C@@H](COC)c3cc(NS(=O)(=O)C4CC4)ccn3)s2)n1 : < 100 nM
CCOc1cncc(-c2ccc(C(=O)NCc3cc(NS(=O)(=O)C4CC4)ccn3)nc2)n1 : < 100 nM
CCOc1cncc(N2CCN(C(=O)NCc3cc(NS(=O)(=O)C4CC4)ccn3)CC2)n1 : 100 to 1000 nM
CCOc1cncc(-c2ccc(C(=O)NC(C)(C)c3nc(NS(=O)(=O)C4CC4)sc3Cl)nc2)n1 : 1000 to 10000 nM
CCOc1cncc(-c2cnc(C(=O)N3CCN(C)CC3c3cc(NS(=O)(=O)C4CC4)ccn3)s2)n1 (stereo not drawn) : 100 to 1000 nM
CCOc1cncc(-c2ncc(C(=O)N3CCC[C@@H]3c3cc(NS(=O)(=O)C4CC4)ccn3)s2)n1 : 100 to 1000 nM
CCOc1cncc(-c2cnc(C(=O)NC(C)(CCOC)c3cc(NS(=O)(=O)C4CC4)ccn3)s2)n1 (stereo not drawn) : 100 to 1000 nM
CCc1cncc(-c2ccc(C(=O)NC(CCOC)c3csc(NS(=O)(=O)C4CC4)n3)c(F)c2)n1 (stereo not drawn) : 100 to 1000 nM
CCOc1cncc(-c2ccc(C(=O)NC(C)(C)c3csc(NS(=O)(=O)C4CC4)n3)nc2)n1 : 100 to 1000 nM
COCCC(NC(=O)c1ccc(-c2cncc(C(F)(F)F)n2)cc1F)c1csc(NS(=O)(=O)C2CC2)n1 (stereo not drawn) : 100 to 1000 nM
CCOc1cncc(-c2cnc(C(=O)N[C@H](CCN(C)C)c3c(F)ccc(NS(=O)(=O)C4CC4)c3F)s2)n1 (single isomer, unassigned) : ≥ 1000 nM
Cc1cn2cc(-c3ccc(C(=O)NCc4cc(NS(=O)(=O)C5CC5)ccn4)nc3)cnc2n1 : ≥ 1000 nM
O=C(NC1(c2csc(NS(=O)(=O)C3CC3)n2)CC1)c1ccc(-c2cncc(C(F)(F)F)n2)cc1 : < 100 nM
Cc1cc(-c2cncc(C(F)(F)F)n2)ccc1C(=O)NC1(c2csc(NS(=O)(=O)C3CC3)n2)CC1 : < 100 nM
CCOc1cncc(-c2cnc(C(=O)NC(c3cc(NS(=O)(=O)C4CC4)ccn3)C3CCN(C)CC3)s2)n1 (stereo not drawn) : < 100 nM
O=C(NC1(c2csc(NS(=O)(=O)C3CC3)n2)CC1)c1ccc2c[n+]([O-])ccc2c1 : ≥ 1000 nM
O=C(NC1(c2csc(NS(=O)(=O)C3CC3)n2)CC1)c1ccc2ccccc2c1 : 100 to 1000 nM
CC(C)(NC(=O)c1ccc(-c2cccc(C(F)(F)F)c2)cc1)c1csc(NS(=O)(=O)C2CC2)n1 : 100 to 1000 nM
CCOc1cncc(-c2cnc(C(=O)N[C@@H](CC)c3cc(NS(=O)(=O)C4CC4)ccn3)s2)n1 : < 100 nM
CCOc1cncc(-c2cnc(C(=O)N[C@@H](C[C@@H]3CCCCN3C)c3cc(NS(=O)(=O)C4CC4)ccn3)s2)n1 (single isomer, unassigned) : 100 to 1000 nM
CCOc1cncc(-c2ccc(C(=O)NCc3ccnc(NS(=O)(=O)N4CCC4)n3)nc2)n1 : ≥ 1000 nM
CCOc1cncc(-c2cnc(C(=O)N[C@H](C[C@@H]3CCCCN3C)c3cc(NS(=O)(=O)C4CC4)ccn3)s2)n1 (single isomer, unassigned) : < 100 nM
CCOc1cncc(-c2cnc(C(=O)NC(CCN3CCCCC3)c3cc(NS(=O)(=O)C4CC4)ccn3)s2)n1 (stereo not drawn) : < 100 nM
CCOc1cncc(-c2ncc(C(=O)NCc3cc(NS(=O)(=O)C4CC4)ccn3)o2)n1 : ≥ 1000 nM
CCOc1cncc(-c2cnc(C(=O)N[C@@H](c3cc(NS(=O)(=O)C4CC4)ccn3)C3CCN(C)CC3)s2)n1 : < 100 nM
CC(C)(NC(=O)c1ccc(-c2cncc(Cl)n2)cc1)c1csc(NS(=O)(=O)C2CC2)n1 : < 100 nM
CCOc1cncc(-c2cnc(C(=O)NC(CN3CCOCC3)c3cc(NS(=O)(=O)C4CC4)ccn3)s2)n1 (stereo not drawn) : < 100 nM
